# credit: patent US20080234384A1

Would you mind telling me the reported pIC50 of each entry?
# Test System: DMT1 (Homo sapiens)
# Protocol Description: DMT1 Activity Assay (In Vitro Assay)
# Condition Parameters: read-out: IC50 Activity Level
pIC50: −log10 of the molar value. Counter-ions that a name gives are not always drawn.

Asked: Identify measured pIC50 associated with CCNc1ccc(Sc2ccccc2CSC(=N)N)c(CSC(=N)N)c1 [Example 1.21, trihydrobromide]
Given back: ≤ 6.00

Asked: Identify measured pIC50 associated with N=C(N)SCc1ccccc1Sc1cc(F)c(F)cc1CSC(=N)N [Example 1.9, dihydrobromide]
Given back: 6.00 to 7.00

Asked: Identify measured pIC50 associated with N=C(N)SCCc1ccccc1Sc1ccccc1CCSC(=N)N [Example 1.31, dihydrobromide]
Given back: ≤ 6.00

Asked: Identify measured pIC50 associated with N=C(N)SCc1cc(F)ccc1Sc1ccc2ccccc2c1CSC(=N)N [Example 1.14, dihydrobromide]
Given back: ≤ 6.00

Asked: Identify measured pIC50 associated with N=C(N)SCc1ccccc1Sc1ccccc1CSC(=N)N [Example 1.1, dihydrobromide]
Given back: 6.00 to 7.00

Asked: Identify measured pIC50 associated with COc1ccc(Sc2ccccc2CSC(=N)N)c(CSC(=N)N)c1 [Example 1.4, dihydrobromide]
Given back: ≤ 6.00

Asked: Identify measured pIC50 associated with N=C(N)SCc1ccccc1C(=O)c1ccc(Cl)cc1CSC(=N)N [Example 2.29, dihydrobromide]
Given back: ≤ 6.00

Asked: Identify measured pIC50 associated with N=C(N)SCc1cc([N+](=O)[O-])ccc1Oc1cc(Cl)ccc1CSC(=N)N [Example 2.19, dihydrobromide]
Given back: ≤ 6.00

Asked: Identify measured pIC50 associated with N=C(N)SCc1cc(F)ccc1Sc1ccc([N+](=O)[O-])cc1CSC(=N)N [Example 2.1, dihydrobromide]
Given back: 7.00 to 8.00

Asked: Identify measured pIC50 associated with N=C(N)SCc1cc(F)ccc1Sc1ccc(C(F)(F)F)cc1CSC(=N)N [Example 1.18, dihydrobromide]
Given back: ≤ 6.00

Asked: Identify measured pIC50 associated with CC(SC(=N)N)c1ccccc1Oc1ccccc1C(C)SC(=N)N (stereo not shown) [Example 1, dihydrobromide]
Given back: ≤ 6.00

Asked: Identify measured pIC50 associated with COc1ccc(Sc2ccc(F)cc2CSC(=N)N)c(CSC(=N)N)c1 [Example 1.6, dihydrobromide]
Given back: 6.00 to 7.00

Asked: Identify measured pIC50 associated with N=C(N)SCc1cc(F)ccc1Sc1cc(F)ccc1CSC(=N)N [Example 1.15, dihydrobromide]
Given back: 6.00 to 7.00

Asked: Identify measured pIC50 associated with N=C(N)SCCc1cc(Cl)ccc1Sc1ccc(F)cc1CSC(=N)N [Example 1.24, dihydrobromide]
Given back: 6.00 to 7.00

Asked: Identify measured pIC50 associated with COC(=O)c1cccc(CSC(=N)N)c1-c1c(CSC(=N)N)cccc1C(=O)OC [Example 2.24, dihydrobromide]
Given back: ≤ 6.00

Asked: Identify measured pIC50 associated with N#CN=C(N)CCc1ccccc1Sc1ccccc1CCC(N)=NC#N [Example 7]
Given back: ≤ 6.00

###

# Test System: DMT1 (Homo sapiens, UniProt P49281)
# Sequence (P49281 1-568): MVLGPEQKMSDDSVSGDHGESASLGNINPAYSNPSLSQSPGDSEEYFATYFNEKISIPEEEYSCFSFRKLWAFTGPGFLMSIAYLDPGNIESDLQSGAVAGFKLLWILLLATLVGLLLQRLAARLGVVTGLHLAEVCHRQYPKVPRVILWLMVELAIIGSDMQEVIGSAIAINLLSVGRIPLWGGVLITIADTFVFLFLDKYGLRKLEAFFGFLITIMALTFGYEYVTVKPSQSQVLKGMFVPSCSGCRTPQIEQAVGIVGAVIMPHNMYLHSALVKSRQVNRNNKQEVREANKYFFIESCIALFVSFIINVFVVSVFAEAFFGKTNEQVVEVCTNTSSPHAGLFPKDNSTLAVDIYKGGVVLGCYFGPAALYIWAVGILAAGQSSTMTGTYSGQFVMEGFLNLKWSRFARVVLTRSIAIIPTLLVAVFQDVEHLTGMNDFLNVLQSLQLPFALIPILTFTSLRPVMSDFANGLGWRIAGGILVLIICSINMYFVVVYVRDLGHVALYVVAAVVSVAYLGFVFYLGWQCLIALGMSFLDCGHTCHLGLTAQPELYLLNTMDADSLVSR
# Protocol Description: DMT1 Activity Assay (In Vitro Assay)
# Condition Parameters: read-out: IC50 Activity Level
pIC50: −log10 of the molar value. Where a name gives a salt, the structure may show the parent alone.
Would you mind telling me the reported pIC50 of each entry?

Asked: Identify measured pIC50 associated with N=C(N)SCc1ccccc1Oc1ccc(Cl)cc1CSC(=N)N [Example 2.16, dihydrobromide]
Given back: ≤ 6.00

Asked: Identify measured pIC50 associated with NC(=S)Nc1ccccc1Sc1ccccc1NC(N)=S [Example 8]
Given back: ≤ 6.00

Asked: Identify measured pIC50 associated with N=C(N)NCCc1ccccc1Sc1ccccc1CCNC(=N)N [Example 5, (4-methylbenzenesulfonate)]
Given back: ≤ 6.00

Asked: Identify measured pIC50 associated with N=C(N)SCc1ccccc1Sc1ccc(Cl)cc1CSC(=N)N [Example 1.26, dihydrobromide]
Given back: 6.00 to 7.00

Asked: Identify measured pIC50 associated with Cc1ccc(CSC(=N)N)c(Sc2ccccc2CSC(=N)N)c1 [Example 1.3, dihydrobromide]
Given back: ≤ 6.00

Asked: Identify measured pIC50 associated with N=C(N)SCc1cc(F)ccc1Sc1cc(Cl)ccc1CSC(=N)N [Example 1.7, dihydrobromide]
Given back: 6.00 to 7.00

Asked: Identify measured pIC50 associated with N=C(N)SCc1ccccc1Oc1cccc(Cl)c1CSC(=N)N [Example 2.17, dihydrobromide]
Given back: ≤ 6.00

Asked: Identify measured pIC50 associated with N=C(N)SCc1ccccc1C(=O)c1cc(F)ccc1CSC(=N)N [Example 2.27, dihydrobromide]
Given back: ≤ 6.00

Asked: Identify measured pIC50 associated with N=C(N)CCc1ccccc1Sc1ccccc1CCC(=N)N [Example 6]
Given back: ≤ 6.00

Asked: Identify measured pIC50 associated with N=C(N)SCc1cc(F)ccc1S(=O)(=O)c1ccc(F)cc1CSC(=N)N [Example 2.4, dihydrobromide]
Given back: ≤ 6.00

Asked: Identify measured pIC50 associated with N=C(N)SCc1cc(F)ccc1Oc1ccc([N+](=O)[O-])cc1CSC(=N)N [Example 2.14, dihydrobromide]
Given back: 6.00 to 7.00

Asked: Identify measured pIC50 associated with CS(=O)(=O)c1ccc(CSC(=N)N)c(Sc2ccc(F)cc2CSC(=N)N)c1 [Example 2.7, dihydrochloride]
Given back: ≤ 6.00

Asked: Identify measured pIC50 associated with N=C(N)SCc1cc(F)ccc1Sc1cc(F)c(F)cc1CSC(=N)N [Example 1.16, dihydrobromide]
Given back: 6.00 to 7.00

Asked: Identify measured pIC50 associated with N=C(N)SCc1ccccc1C(=O)c1ccc(F)cc1CSC(=N)N [Example 2.26, dihydrobromide]
Given back: 6.00 to 7.00

Asked: Identify measured pIC50 associated with N=C(N)SCc1cc(F)ccc1Oc1cccc(Cl)c1CSC(=N)N [Example 2.10, dihydrobromide]
Given back: ≤ 6.00

Asked: Identify measured pIC50 associated with N=C(N)SCc1cc(F)ccc1Oc1ccc(F)cc1CSC(=N)N [Example 2.13, dihydrobromide]
Given back: 6.00 to 7.00

Asked: Identify measured pIC50 associated with N=C(N)SCc1ccccc1Sc1cc(F)ccc1CSC(=N)N [Example 1.12, dihydrobromide]
Given back: 6.00 to 7.00

Asked: Identify measured pIC50 associated with N=C(N)Cc1ccccc1Sc1ccccc1CC(=N)N [Example 6.1]
Given back: ≤ 6.00

Asked: Identify measured pIC50 associated with N=C(N)SCc1ccccc1Oc1ccc(F)cc1CSC(=N)N [Example 2.21, dihydrobromide]
Given back: 6.00 to 7.00

Asked: Identify measured pIC50 associated with Cc1ccc(Sc2ccccc2CSC(=N)N)c(CSC(=N)N)c1 [Example 1.10, dihydrobromide]
Given back: 6.00 to 7.00

Asked: Identify measured pIC50 associated with Cc1cccc(CSC(=N)N)c1Sc1ccccc1CSC(=N)N [Example 1.8, dihydrobromide]
Given back: ≤ 6.00

Asked: Identify measured pIC50 associated with Cc1ccc(CSC(=N)N)c(Sc2ccc(F)cc2CSC(=N)N)c1 [Example 1.5, dihydrobromide]
Given back: ≤ 6.00

Asked: Identify measured pIC50 associated with N#Cc1ccc(Sc2ccc(Cl)cc2CSC(=N)N)c(CSC(=N)N)c1 [Example 2.8, dihydrobromide]
Given back: ≤ 6.00

Asked: Identify measured pIC50 associated with N=C(N)SCc1ccccc1Oc1ccccc1CSC(=N)N [Example 2.15, dihydrobromide]
Given back: ≤ 6.00

Asked: Identify measured pIC50 associated with N=C(N)SCc1ccc(Cl)cc1Oc1cc([N+](=O)[O-])ccc1CSC(=N)N [Example 2.9, dihydrobromide]
Given back: ≤ 6.00

Asked: Identify measured pIC50 associated with N=C(N)SCc1cc(Cl)ccc1Oc1ccc([N+](=O)[O-])cc1CSC(=N)N [Example 2.20, dihydrobromide]
Given back: ≤ 6.00

Asked: Identify measured pIC50 associated with N=C(N)SCc1cc(F)ccc1Sc1ccc(Cl)cc1CSC(=N)N [Example 1.20, dihydrobromide]
Given back: 6.00 to 7.00

Asked: Identify measured pIC50 associated with CN(c1ccccc1CSC(=N)N)c1ccccc1CSC(=N)N [Example 1.28, trihydrobromide]
Given back: 6.00 to 7.00

Asked: Identify measured pIC50 associated with N=C(N)SCc1ccccc1Sc1ccc(N)cc1CSC(=N)N [Example 1.19, trihydrobromide]
Given back: 6.00 to 7.00

Asked: Identify measured pIC50 associated with N=C(N)SCc1cc(F)ccc1Oc1cc(F)ccc1CSC(=N)N [Example 2.12, dihydrobromide]
Given back: 6.00 to 7.00

Asked: Identify measured pIC50 associated with N=C(N)SCc1ccccc1S(=O)(=O)c1ccccc1CSC(=N)N [Example 2.3, dihydrobromide]
Given back: ≤ 6.00

Asked: Identify measured pIC50 associated with N=C(N)SCc1cc(F)ccc1Sc1cscc1CSC(=N)N [Example 2.5, dihydrochloride]
Given back: 6.00 to 7.00
